- EXPERIMENTAL_DETAILS: Oral bioavailability in Sprague-Dawley rat at 50 mg/kg
- Format: ADME, organism-based
- REPORTED_CONDITIONS: in vivo
PROPERTY: bioavailability (%)
// note: answer is a bare numeric in %

Ask | Suppose we examine the molecule `CC(C)(C)C[C@H]1N[C@@H](C(=O)NCC[C@H](O)CO)[C@H](c2cccc(Cl)c2F)[C@@]12C(=O)Nc1cc(Cl)ccc12` ; what bioavailability value has been reported?
Reply | 21

====

- EXPERIMENTAL_DETAILS: Terminal half life in Sprague-Dawley rat at 25 mg/kg, po
- Format: ADME, organism-based
- Parameters: dose 25 mg/kg, route oral
- REPORTED_CONDITIONS: in vivo, read-out: beta t1/2 (converted)
PROPERTY: half-life (h)
// note: answer is a bare numeric in h

Ask | Suppose we examine the molecule `COCCOCCNC(=O)[C@@H]1N[C@H](CC(C)(C)C)[C@]2(C(=O)Nc3cc(Cl)ccc32)[C@H]1c1cccc(Cl)c1F` ; what half-life value has been reported?
Reply | 1.2

Ask | Could you do the same for `CC(C)(C)C[C@H]1N[C@@H](C(=O)NCC[C@H](O)CO)[C@H](c2cccc(Cl)c2)[C@@]12C(=O)Nc1cc(Cl)c(F)cc12` , please?
Reply | 1.4

Ask | Could you do the same for `CC(C)(C)C[C@H]1N[C@@H](C(=O)NC[C@H](O)CO)[C@H](c2cccc(Cl)c2)[C@@]12C(=O)Nc1cc(Cl)c(F)cc12` , please?
Reply | 3.2

Ask | Could you do the same for `CC(C)(C)C[C@H]1N[C@@H](C(=O)NCCN2CCOCC2)[C@H](c2cccc(Cl)c2F)[C@@]12C(=O)Nc1cc(Cl)ccc12` , please?
Reply | 1.3

Ask | Could you do the same for `CN1CCN(CCNC(=O)[C@@H]2N[C@H](CC(C)(C)C)[C@]3(C(=O)Nc4cc(Cl)ccc43)[C@H]2c2cccc(Cl)c2F)CC1` , please?
Reply | 3.8

Ask | Could you do the same for `CN1CCC(CCNC(=O)[C@@H]2N[C@H](CC(C)(C)C)[C@]3(C(=O)Nc4cc(Cl)ccc43)[C@H]2c2cccc(Cl)c2F)CC1` , please?
Reply | 7.1

Ask | Could you do the same for `CC(C)(C)C[C@H]1N[C@@H](C(=O)NCC[C@H](O)CO)[C@H](c2cccc(Cl)c2)[C@@]12C(=O)Nc1cc(Cl)ccc12` , please?
Reply | 3

Ask | Could you do the same for `CC(C)(C)C[C@H]1N[C@@H](C(=O)NCC[C@@H](O)CO)[C@H](c2cccc(Cl)c2)[C@@]12C(=O)Nc1cc(Cl)c(F)cc12` , please?
Reply | 3.4

====

- System: Rattus norvegicus
- EXPERIMENTAL_DETAILS: AUC (0 to t) in Sprague-Dawley rat at 50 mg/kg, po
- Assay type: ADME, organism-based, Plasma
- Parameters: dose 50 mg/kg, route oral
- REPORTED_CONDITIONS: in vivo
PROPERTY: AUC (ng·h/mL)
// note: answer is a bare numeric in ng·h/mL

Ask | Suppose we examine the molecule `CC(C)(C)C[C@H]1N[C@@H](C(=O)NCC[C@H](O)CO)[C@H](c2cccc(Cl)c2F)[C@@]12C(=O)Nc1cc(Cl)ccc12` ; what AUC value has been reported?
Reply | 8770
